- Test system: α-isomaltosyl-transferring enzyme
- Type: biochemical, Bacillus globisporus C11
- MEASUREMENT CONDITIONS: 1 mM of each metal-ion
Parameter threshold = 90%. Response is fulfilled when Relative activity (%) meets or exceeds it, else not fulfilled.

{"COMPOUND": "[Zn+2] [Zn^2+]", "TARGET SYSTEM": "α-isomaltosyl-transferring enzyme", "CLASS ASSIGNMENT": "not fulfilled"}
{"COMPOUND": "[Sr+2] [Sr^2+]", "TARGET SYSTEM": "α-isomaltosyl-transferring enzyme", "CLASS ASSIGNMENT": "fulfilled"}
{"COMPOUND": "[Pb+2] [Pb^2+]", "TARGET SYSTEM": "α-isomaltosyl-transferring enzyme", "CLASS ASSIGNMENT": "not fulfilled"}
{"COMPOUND": "[Hg+2] [Hg^2+]", "TARGET SYSTEM": "α-isomaltosyl-transferring enzyme", "CLASS ASSIGNMENT": "not fulfilled"}
{"COMPOUND": "[Cu+2] [Cu^2+]", "TARGET SYSTEM": "α-isomaltosyl-transferring enzyme", "CLASS ASSIGNMENT": "not fulfilled"}

---

- Test system: α-isomaltosylglucosaccharide-forming enzyme
- EXPERIMENTAL PROTOCOL: Influence of metal ions on the activity of α-isomaltosylglucosaccharide-forming enzyme (Strain A19)
- Format: biochemical, Arthrobacter globiformis A19
- MEASUREMENT CONDITIONS: 1 mM of each metal-ion

{"COMPOUND": "[Pb+2]", "TARGET SYSTEM": "α-isomaltosylglucosaccharide-forming enzyme", "READING UNIT": "%", "Relative activity (%)": 43}
{"COMPOUND": "[Fe+2]", "TARGET SYSTEM": "α-isomaltosylglucosaccharide-forming enzyme", "READING UNIT": "%", "Relative activity (%)": 36}
{"COMPOUND": "[Cu+2]", "TARGET SYSTEM": "α-isomaltosylglucosaccharide-forming enzyme", "READING UNIT": "%", "Relative activity (%)": 0}
{"COMPOUND": "[Ba+2]", "TARGET SYSTEM": "α-isomaltosylglucosaccharide-forming enzyme", "READING UNIT": "%", "Relative activity (%)": 99}
{"COMPOUND": "[Hg+2]", "TARGET SYSTEM": "α-isomaltosylglucosaccharide-forming enzyme", "READING UNIT": "%", "Relative activity (%)": 0}
{"COMPOUND": "[Ca+2]", "TARGET SYSTEM": "α-isomaltosylglucosaccharide-forming enzyme", "READING UNIT": "%", "Relative activity (%)": 106}
{"COMPOUND": "[Co+2]", "TARGET SYSTEM": "α-isomaltosylglucosaccharide-forming enzyme", "READING UNIT": "%", "Relative activity (%)": 93}
{"COMPOUND": "[Sr+2]", "TARGET SYSTEM": "α-isomaltosylglucosaccharide-forming enzyme", "READING UNIT": "%", "Relative activity (%)": 102}
{"COMPOUND": "O=C(O)CN(CCN(CC(=O)O)CC(=O)O)CC(=O)O [EDTA, ethylenediaminetetraacetic acid, reference compound]", "TARGET SYSTEM": "α-isomaltosylglucosaccharide-forming enzyme", "READING UNIT": "%", "Relative activity (%)": 2}
{"COMPOUND": "[Ni+2]", "TARGET SYSTEM": "α-isomaltosylglucosaccharide-forming enzyme", "READING UNIT": "%", "Relative activity (%)": 46}
{"COMPOUND": "[Al+3]", "TARGET SYSTEM": "α-isomaltosylglucosaccharide-forming enzyme", "READING UNIT": "%", "Relative activity (%)": 37}
{"COMPOUND": "[Zn+2]", "TARGET SYSTEM": "α-isomaltosylglucosaccharide-forming enzyme", "READING UNIT": "%", "Relative activity (%)": 56}
